# Test system: SW-620
# protocol description: NCI tumour cell line growth inhibition, 48 h
Active and inactive are the calls of the source. No stated cut-off is given here; in the data, active = GI50 up to about 1.1 µM and inactive = higher.
Pick from 1 (active), -1 (inactive) when you respond.

Worked set:
In [3]: df
Out[3]:
                                   compound  category_label
0        COc1cccc(-c2cc(O)c3cc(Cl)cnc3n2)c1               1
1  COc1ccc2c(=O)c(-c3cc4c(cc3OC)OCO4)coc2c1              -1
2  C=C1CC[C@@H]2[C@](C)(COC(=O)CCC(=O)O)CCC[C@@]2(C)[C@@H]1CCC1=CC(=O)OC1              -1
3  O=C(O)CCc1nc2c(n1Cc1ccccc1)C(=O)c1ccccc1C2=O              -1
4  CCOC(=O)CO/N=C1/C(=C2/C(=O)Nc3ccccc32)Nc2ccccc21              -1

Call for entry O=C(N/N=C\c1ccc([N+](=O)[O-])cc1)Nc1ccccc1 :
-1

Tell me the recorded outcome of this test for Nc1ccn(CCNCCn2cnc3nc(N)[nH]c(=O)c32)c(=O)n1 .
-1

Recorded test outcome, item C/C(Cc1ccc2c(c1)OCO2)=N\N=c1\sc2ccccc2n1C
-1

Could you kindly confirm the outcome this assay logged for CC(NC(CC12CC3CC(CC(C3)C1)C2)C(N)=O)c1ccccc1 (stereo not given) ?
-1

Please let me know the test result on file for C=C(C)C(=O)O[C@H]1C/C(CO)=C/CCC(=C)C(OC(C)=O)[C@H]2OC(=O)C(=C)[C@H]12 (stereo not given in full) .
-1

###

# Test system: HCT-15
Field: GI50. Provide a value for each of the compounds that follow.

Use the examples below as a reference point.
>>> print(df.to_string())
                                   compound  system  measured_quantity  measurement
0  CCOC(=O)CO/N=C1/C(=C2/C(=O)Nc3ccccc32)Nc2ccccc21  HCT-15               GI50      81.7 µM
1                    C1CCSCCCCSCCCCSCCCCSC1  HCT-15               GI50     > 100 µM

Query compound follows.
Entry CC(C)(C)C(=O)OCC1CCC(n2cnc3c(=O)[nH]c(N)nc32)O1 (stereo not drawn) : reported GI50 = ?
> 100 µM

###

# Tested on: IGROV-1
# protocol description: NCI tumour cell line growth inhibition, 48 h
Calls of active or inactive are those of the source. Rule as the data show it: active = GI50 up to about 1.1 µM and inactive = higher.
For each of the molecules below, state its GI50.

Batch: GI50 for all items listed.
1. Cc1cccc(C(C)(C)C)c1NC(=O)C(C#N)C1=C(Cl)C(=O)c2ccccc2C1=O (stereo not drawn)
2. CCOC(=O)c1c2cccccc-2nc1Nc1cccc2c(C)ccnc12

18.4 µM (inactive)
4.82 µM (inactive)

Parameters: items (list). Returns: GI50 for each item.
1. Cc1cc(O)c2c(c1)C(=O)C=C(Br)C2=O
2. CC(=O)O[C@H]1C=CC23OC(=O)[C@]1(C)[C@H]2[C@H](C(=O)O)C12CC(=O)[C@@](CO)(CC[C@H]13)C2
3. CC1=NN(C(=O)CC(=O)Nc2ccc(Cl)cc2)C(=O)C1/N=N\c1ccc(S(=O)(=O)c2ccc(/N=N/C3C(=O)N(C(=O)CC(=O)Nc4ccc(Cl)cc4)N=C3C)cc2)cc1 (stereo not drawn)
4. CCC1=CC2CN3CCc4c([nH]c5ccccc45)C(C(=O)OC)(C2)C13 (stereo not drawn)
5. FC(F)(F)c1ccc2c(c1)nc(Cc1ccc(Cl)cc1)n2CC1CCCN2CCCCC12 (stereo not drawn)
6. O=C(N/N=C\c1ccc([N+](=O)[O-])cc1)Nc1ccccc1

> 43.7 µM (inactive)
> 100 µM (inactive)
> 100 µM (inactive)
47.3 µM (inactive)
10.4 µM (inactive)
> 100 µM (inactive)
